experiment: Clearance in Sprague-Dawley rat at 15 mg/kg, po by LC-MS analysis; format: ADME, organism-based; parameters: dose 15 mg/kg, route oral; settings: in vivo
Quantity: CL/F (L/h/kg)
Respond with the bare value in L/h/kg.

Problem: Can you share its CL/F? I mean this molecule: CC(=O)NC[C@@H]1OC(=O)N2c3ccc(-c4ccc(C#N)nc4)cc3OC[C@@H]12
Result: 0.229

* * *

test: Clearance in Sprague-Dawley rat at 15 mg/kg, iv by LC-MS analysis; assay type: ADME, organism-based; parameters: dose 15 mg/kg, route intravenous; details: in vivo
Quantity: clearance (mL/min/kg)
Please give a number only; it is taken to be in mL/min/kg.

Problem: State the recorded clearance for this entry: CC(=O)NC[C@@H]1OC(=O)N2c3ccc(-c4ccc(C#N)nc4)cc3OC[C@@H]12
Result: 3.07

* * *

assay: Oral bioavailability in Sprague-Dawley rat at 15 mg/kg by LC-MS analysis; assay type: ADME, organism-based; settings: in vivo
Quantity: bioavailability

Problem: Query: bioavailability; subject: CC(=O)NC[C@@H]1OC(=O)N2c3ccc(-c4ccc(C#N)nc4)cc3OC[C@@H]12
Result: 81%

* * *

tested on: Enterococcus faecium; assay: Antibacterial activity against linezolid-resistant Enterococcus faecium after 16 hrs by agar dilution method; assay type: functional
Quantity: MIC (mg/L)
Quick reminder: number only, in mg/L, skip the unit.

Problem: API: value(readout= MIC, system= Enterococcus faecium, query= CC(=O)NC[C@@H]1OC(=O)N2c3ccc(-c4ccc(C(C)=O)nc4)cc3OC[C@@H]12 )
Result: 1

Problem: Request: CC(=O)NC[C@@H]1OC(=O)N2c3ccc(-c4ccc(C5(N)CC5)nc4)cc3OC[C@@H]12
Result: 4

Problem: Would you kindly repeat that for COc1ccc(-c2ccc3c(c2)OC[C@H]2[C@H](CNC(C)=O)OC(=O)N32)cn1 ?
Result: 1

Problem: What do you have for CC(=O)NC[C@@H]1OC(=O)N2c3ccc(-c4ccc(C#CCO)nc4)cc3OC[C@@H]12 ?
Result: 1

Problem: // repeat for CC(=O)NC[C@@H]1OC(=O)N2c3ccc(-c4ccc(N5CCOC5=O)nc4)cc3OC[C@@H]12 and report
Result: 0.5

Problem: Another compound to look at: CC(=O)NC[C@@H]1OC(=O)N2c3ccc(-c4ccc(C5(C#N)CC5)nc4)cc3OC[C@@H]12
Result: 1

Problem: Again, but for CC(=O)NC[C@@H]1OC(=O)N2c3ccc(-c4ccc(-c5nnnn5C)nc4)cc3OC[C@@H]12
Result: 1

Problem: Next up: CC(=O)NC[C@@H]1OC(=O)N2c3ccc(-c4ccc([N+](=O)[O-])nc4)cc3OC[C@@H]12
Result: 1

* * *

system: Staphylococcus epidermidis; test: Antibacterial activity against methicillin-resistant Staphylococcus epidermidis after 16 hrs by agar dilution method; format: functional
Label Condition met when MIC is strictly below 0.5 µg/mL; otherwise label Condition not met.

Problem: Consider CC(=O)NC[C@@H]1OC(=O)N2c3cc(F)c(-c4ccc(C#N)nc4)cc3OC[C@@H]12 . Does its MIC lie strictly below 0.5 µg/mL?
Result: Condition not met

Problem: Input COc1ncc(-c2ccc3c(c2)OC[C@H]2[C@H](CNC(C)=O)OC(=O)N32)c(OC)n1
Result: Condition not met

Problem: Now consider CC(=O)NC[C@@H]1OC(=O)N2c3ccc(-c4ccc(C5(N)CC5)nc4)cc3OC[C@@H]12 and answer again.
Result: Condition met

Problem: What about this molecule? CC(=O)NC[C@@H]1OC(=O)N2c3ccc(-c4ccc(C#N)nc4)cc3OC[C@@H]12
Result: Condition met

Problem: CC(=O)NC[C@@H]1OC(=O)N2c3ccc(-c4ccc([N+](=O)[O-])nc4)cc3OC[C@@H]12 ?
Result: Condition met

Problem: Quick one: CC(=O)NC[C@@H]1OC(=O)N2c3ccc(-c4ccc(-n5cncn5)nc4)cc3OC[C@@H]12
Result: Condition not met

Problem: Try this molecule too: CC(=O)NC[C@@H]1OC(=O)N2c3ccc(-c4ccc(C#CCO)nc4)cc3OC[C@@H]12
Result: Condition met

Problem: Here is the next molecule: CC(=O)NC[C@@H]1OC(=O)N2c3ccc(-c4ccccc4)cc3OC[C@@H]12
Result: Condition not met

Problem: Now consider CC(=O)NC[C@@H]1OC(=O)N2c3ccc(N4CCN(Cc5ccco5)CC4)cc3OC[C@@H]12 .
Result: Condition not met

Problem: Let us now turn to CC(=O)NC[C@@H]1OC(=O)N2c3ccc(N4CCN(Cc5cccc([N+](=O)[O-])c5)CC4)cc3OC[C@@H]12
Result: Condition not met

Problem: What would you report for CC(=O)NC[C@@H]1OC(=O)N2c3cc(F)c(-c4ccncc4)cc3OC[C@@H]12 ?
Result: Condition not met

Problem: Item: CC(=O)NC[C@@H]1OC(=O)N2c3ccc(-c4ccc(C(C)=O)cn4)cc3OC[C@@H]12
Result: Condition not met

Problem: Next molecule up: CC(=O)NC[C@@H]1OC(=O)N2c3ccc(N4CCN(Cc5ccccc5[N+](=O)[O-])CC4)cc3OC[C@@H]12
Result: Condition not met

Problem: Would you kindly repeat that for CC(=O)NC[C@H]1CN(c2ccc(N3CCOCC3)c(F)c2)C(=O)O1 ?
Result: Condition not met

Problem: Same question for CC(=O)NC[C@@H]1OC(=O)N2c3ccc(-c4ccc(CC#N)nc4)cc3OC[C@@H]12 please.
Result: Condition met

Problem: Also, CC(=O)NC[C@@H]1OC(=O)N2c3ccc(N4CCN(Cc5ccccn5)CC4)cc3OC[C@@H]12 please.
Result: Condition not met

Problem: Next molecule: CC(=O)NC[C@@H]1OC(=O)N2c3ccc(-c4ccc(C(C)=O)nc4)cc3OC[C@@H]12
Result: Condition met

Problem: CC(=O)NC[C@@H]1OC(=O)N2c3ccc(-c4ccc(N5CCOC5=O)nc4)cc3OC[C@@H]12 , same question.
Result: Condition met

Problem: Same again, this time with CC(=O)NC[C@@H]1OC(=O)N2c3ccc(N4CCN(Cc5cccnc5)CC4)cc3OC[C@@H]12
Result: Condition not met

Problem: Similarly, CC(=O)NC[C@@H]1OC(=O)N2c3ccc(-c4ccc(C#N)cn4)cc3OC[C@@H]12 ?
Result: Condition not met

Problem: Request: CC(=O)NC[C@@H]1OC(=O)N2c3ccc(-c4ccsc4)cc3OC[C@@H]12
Result: Condition not met

Problem: Please answer likewise for CC(=O)NC[C@@H]1OC(=O)N2c3ccc(N4CCN(Cc5ccoc5)CC4)cc3OC[C@@H]12
Result: Condition not met

Problem: // query: CC(=O)NC[C@@H]1OC(=O)N2c3ccc(-c4ccc(-c5nnnn5C)nc4)cc3OC[C@@H]12
Result: Condition met

* * *

experiment: Tmax in Sprague-Dawley rat at 50 mg/kg, po by LC-MS analysis; type: ADME, organism-based; design: dose 50 mg/kg, route oral; settings: in vivo
Quantity: Tmax (h)
# output: bare number, implied unit h

Problem: # query: Tmax of entry CC(=O)NC[C@@H]1OC(=O)N2c3ccc(-c4ccc(N5CCOC5=O)nc4)cc3OC[C@@H]12
Result: 6

* * *

tested on: Enterococcus faecalis; assay: Antibacterial activity against linezolid-resistant Enterococcus faecalis after 16 hrs by agar dilution method; format: functional
I'd be grateful if you could share measured MIC for these entries.
Please state the figure in µg/mL; there is no need to write the unit.

Problem: Need MIC, item CC(=O)NC[C@@H]1OC(=O)N2c3ccc(-c4ccc(N5CCOC5=O)nc4)cc3OC[C@@H]12
Result: 1

Problem: Continue with CC(=O)NC[C@@H]1OC(=O)N2c3ccc(-c4ccc([N+](=O)[O-])nc4)cc3OC[C@@H]12
Result: 1

Problem: Likewise for CC(=O)NC[C@@H]1OC(=O)N2c3ccc(-c4ccc(C#CCO)nc4)cc3OC[C@@H]12 ?
Result: 1

Problem: Cool, now CC(=O)NC[C@@H]1OC(=O)N2c3ccc(-c4ccc(C5(N)CC5)nc4)cc3OC[C@@H]12
Result: 4

Problem: Ok, now COc1ccc(-c2ccc3c(c2)OC[C@H]2[C@H](CNC(C)=O)OC(=O)N32)cn1
Result: 2

Problem: Can you handle CC(=O)NC[C@@H]1OC(=O)N2c3ccc(-c4ccc(C(C)=O)nc4)cc3OC[C@@H]12 next?
Result: 1

Problem: What do we get for CC(=O)NC[C@@H]1OC(=O)N2c3ccc(-c4ccc(-c5nnnn5C)nc4)cc3OC[C@@H]12 ?
Result: 1

Problem: # iterate: CC(=O)NC[C@@H]1OC(=O)N2c3ccc(-c4ccc(C5(C#N)CC5)nc4)cc3OC[C@@H]12
Result: 1

Problem: Try this compound too: CC(=O)NC[C@@H]1OC(=O)N2c3ccc(-c4ccc(C#N)nc4)cc3OC[C@@H]12
Result: 1

Problem: // next record CC(=O)NC[C@@H]1OC(=O)N2c3ccc(-c4ccc(N)nc4)cc3OC[C@@H]12
Result: 2

This collection of values is drawn from ChEMBL document CHEMBL1914384.
